Target: HCV NS5B (Hepatitis C virus genotype 1b)
Construct: fusion protein, of which the carboxyl terminal 21 amino acids were removed to enhance its solubility; His tag (GSHHHHHH); made in house; host or cells: E. coli
Test: Inhibition of viral RNA-dependent RNA polymerase (RdRp), in vitro biochemical assay
Design: species or system HCV genotype 1b virus (BB7)
Details: HCV NS5B RdRp, BB7; reported as range class; read-out: HCV pol-BB7 IC50
pIC50: −log10 of the molar value.
Measured pIC50 of individual entries

The cases that follow already have their pIC50 on record.
CNC(=O)c1c(-c2ccc(F)cc2)oc2cc(N3CCOCC3)c(OCc3nn(C)cc3Cl)cc12 = ≥ 6.30
CNC(=O)c1c(-c2ccc(F)cc2)oc2cc(-c3nccs3)c(OC(C)C)cc12 = ≥ 6.30
CNC(=O)c1c(-c2ccc(F)cc2)oc2cc(S(=O)(=O)N3CCSCC3)c(OC(C)C)cc12 = ≥ 6.30
CNC(=O)c1c(-c2ccc(F)cc2)oc2cc(N3CCOCC3)c(OC(C)C#N)cc12 (stereo not shown) = ≥ 6.30

pIC50 reported for this compound CNC(=O)c1c(-c2ccc(F)cc2)oc2cc(N(CCN3CCOCC3)S(C)(=O)=O)c(OC(C)C)cc12 : ≥ 6.30

# compound CNC(=O)c1c(-c2ccc(F)cc2)oc2cc(-c3ccncc3)c(OC(C)C)cc12 ; its pIC50 = ≥ 6.30

Please fill in: pIC50 reported for CNC(=O)c1c(-c2ccc(F)cc2)oc2cc(NS(C)(=O)=O)c(O)cc12 = 5.30 to 6.30

# pIC50 of CNC(=O)c1c(-c2ccc(F)cc2)oc2cc(-c3cc(C4CC4)no3)c(OC(C)C)cc12 = 5.30 to 6.30

The compound listed as CNC(=O)c1c(-c2ccc(F)cc2)oc2cc(Nc3c(C)noc3C)c(OC(C)C)cc12 has a reported pIC50 of 4.52 to 5.30

// pIC50 lookup, compound = CNC(=O)c1c(-c2ccc(F)cc2)oc2cc(CN3CCOCC3)c(OC(C)C)cc12 , result: 4.52 to 5.30

* * *

Tested on: HCV replicon (BB7 sequence) in Huh-7-Clone A cells
Experiment: HCV replicon assay: ELISA of NS5A protein in replicon-containing cells (Inhibition of Viral RNA Replication)
Format: cell-based
Conditions: Hepatitis C virus; HCV replicon assay; ranges of 50% effective concentration (EC50); read-out: Replicon
Listed here are compounds together with their documented EC50.

CNC(=O)c1c(-c2ccc(F)cc2)oc2cc(C(C)(C)NC(C)=O)c(OC)cc12 = < 1000 nM
CCOC(=O)c1csc(COc2cc3c(C(=O)NC)c(-c4ccc(F)cc4)oc3cc2N(C)S(C)(=O)=O)n1 = < 1000 nM
CNC(=O)c1c(-c2ccc(F)cc2)oc2cc(NS(C)(=O)=O)c(-c3cccs3)cc12 = < 1000 nM
CNC(=O)c1c(-c2ccc(F)cc2)oc2cc(-c3nc(C)nn3C)c(OC)cc12 = < 10000 nM
CNC(=O)c1c(-c2ccc(F)cc2)oc2cc(N(C)S(C)(=O)=O)c(OCC(N)=O)cc12 = < 1000 nM

// EC50 value for CNC(=O)c1c(-c2ccc(F)cc2)oc2cc(-c3nc(C)n[nH]3)c(OC)cc12 : < 10000 nM

Lab book: EC50 of CNC(=O)c1c(-c2ccc(F)cc2)oc2cc(N(C)S(C)(=O)=O)c(OCc3nc(C(=O)O)cs3)cc12 noted as > 30000 nM

The recorded EC50 for CNC(=O)c1c(-c2ccc(F)cc2)oc2cc(N(C)C)c(OC)cc12 is < 1000 nM

* * *

Measured EC50 values are reported for all entries that follow.
Tested on: HCV replicon (BB7 sequence) in Huh-7-Clone A cells
Assay: HCV replicon assay: ELISA of NS5A protein in replicon-containing cells (Inhibition of Viral RNA Replication)
Type: cell-based
Details: Hepatitis C virus; HCV replicon assay; ranges of EC50; read-out: Replicon

Answered examples (5):
CNC(=O)c1c(-c2ccc(F)cc2)oc2cc(N(C)S(C)(=O)=O)c(C3CC3)cc12 = < 1000 nM
CNC(=O)c1c(-c2ccc(F)cc2)oc2cc(N(COC)S(C)(=O)=O)c(OCc3ccc(C#N)cc3)cc12 = < 1000 nM
CNC(=O)c1c(-c2ccc(F)cc2)oc2cc(-c3c(C)noc3C)c(O)cc12 = < 1000 nM
CNC(=O)c1c(-c2ccc(F)cc2)oc2cc(N(Cc3c(C)noc3C)S(C)(=O)=O)c(OC)cc12 = < 10000 nM
CNC(=O)c1c(-c2ccc(F)cc2)oc2cc(N(C)S(C)(=O)=O)c(OCC(C)=O)cc12 = < 1000 nM

Value of EC50 reported for the compound CCOCc1cc(-c2cc3oc(-c4ccc(F)cc4)c(C(=O)NC)c3cc2OC)no1 is < 1000 nM

compound CNC(=O)c1c(-c2ccc(F)cc2)oc2cc(N(C)S(C)(=O)=O)c(OCc3ccc(OC)cc3)cc12 , EC50 observed: < 1000 nM

Measured EC50, CNC(=O)c1c(-c2ccc(F)cc2)oc2cc(N(COC)S(C)(=O)=O)c(O)cc12 : < 10000 nM

According to the records, this compound CNC(=O)c1c(-c2ccc(F)cc2)oc2cc(N(C)S(C)(=O)=O)c(OC(F)F)cc12 displays EC50 of < 1000 nM

Looking up CNC(=O)CN(c1cc2oc(-c3ccc(F)cc3)c(C(=O)NC)c2cc1OC)S(C)(=O)=O , I found its EC50 recorded as < 1000 nM

Summary for this compound, CNC(=O)c1c(-c2ccc(F)cc2)oc2cc(N(C)S(C)(=O)=O)c(OCc3ccc(C(=O)OC)cc3)cc12 : EC50 is < 1000 nM

Short answer for CCNc1cc2oc(-c3ccc(F)cc3)c(C(=O)NC)c2cc1OCCCBr : EC50 was < 1000 nM

* * *

In this section we review reported pIC50 values for a set of compounds.
Target: HCV NS5B (Hepatitis C virus genotype 1b, UniProt Q9WMX2)
Construct: fusion protein, of which the carboxyl terminal 21 amino acids were removed to enhance its solubility; His tag (GSHHHHHH); made in house; host or cells: E. coli
Test: Inhibition of viral RNA-dependent RNA polymerase (RdRp), in vitro biochemical assay
Set-up: species or system HCV genotype 1b virus (BB7)
Conditions: HCV NS5B RdRp, BB7 genotype 1b; read-out: HCV pol-BB7 IC50
pIC50: −log10 of the molar value.

CNC(=O)c1c(-c2ccc(F)cc2)oc2cc(N3CCCC(O)C3)c(OC(C)C)cc12 (centres unmarked) = 5.30 to 6.30
CNC(=O)c1c(-c2ccccc2)oc2ccc(CO)cc12 = 4.52 to 5.30
CNC(=O)c1c(-c2ccc(F)cc2)oc2cc(C)c(OC(C)C(=O)O)cc12 (centres unmarked) = 4.52 to 5.30

Record CNC(=O)c1c(-c2ccc(F)cc2)oc2cc(N(C)CCOC)c(OC(C)C)cc12 , field pIC50: ≥ 6.30

So for CNC(=O)c1c(-c2ccc(F)cc2)oc2cc(N3CC(C)OC(C)C3)c(OC(C)C)cc12 (centres unmarked) , the logged pIC50 turned out to be 5.30 to 6.30

The compound listed as CNC(=O)c1c(-c2ccc(N)cc2)oc2ccc(OC(C)C)cc12 has a reported pIC50 of 5.30 to 6.30

compound CNC(=O)c1c(-c2ccc(F)cc2)oc2cc(C#N)c(OC(C)C)cc12 , pIC50 observed: ≥ 6.30

Reported pIC50 of CNC(=O)c1c(-c2ccc(F)cc2)oc2cc(S(=O)(=O)NC)c(OC(C)C)cc12 : ≥ 6.30

* * *

Attribute: EC50
Tested on: HCV replicon (BB7 sequence) in Huh-7-Clone A cells
Test: HCV replicon assay: ELISA of NS5A protein in replicon-containing cells (Inhibition of Viral RNA Replication)
Assay type: cell-based
Details: Hepatitis C virus; HCV replicon assay; ranges of EC50; read-out: Replicon

Recorded EC50, per entry:
CNC(=O)c1c(-c2ccc(F)cc2)oc2cc(N(CC(F)(F)F)S(C)(=O)=O)c(OC)cc12 = < 1000 nM
CNC(=O)c1c(-c2ccc(F)cc2)oc2cc(N(C)S(C)(=O)=O)c(OCc3cccc(C#N)c3)cc12 = < 1000 nM
CNC(=O)c1c(-c2ccc(F)cc2)oc2cc(N(C)S(C)(=O)=O)c(OCc3ccc4c(c3)OC(C)(C)OC4=O)cc12 = < 1000 nM
CCNC(=O)c1c(-c2ccc(F)cc2)oc2cc(-c3c(C)noc3C)c(OC)cc12 = < 1000 nM
C=CCOc1cc2c(C(=O)NC)c(-c3ccc(F)cc3)oc2cc1N(CC=C)S(C)(=O)=O = < 1000 nM
CNC(=O)c1c(-c2ccc(F)cc2)oc2cc(N(CC(C)C)S(C)(=O)=O)c(O)cc12 = < 30000 nM

Shifting focus to the compound that follows.
According to the records, this compound CNC(=O)c1c(-c2ccc(F)cc2)oc2cc(N3CCOCC3)c(OCC(C)O)cc12 (stereo not shown) displays EC50 of < 10000 nM
